Entries annotated with measured IC50
tested on: 186277-243-T-J2-PDC multi-cell spheroid viability; assay: Anticancer human tumor 186277-243-T-J2-PDC patient-derived colon adenocarcinoma cell line growth inhibition [PI3K]; conditions: curve of first compound; second compound 0.1 µM

- compound: "Cn1ncnc1[C@H]1c2n[nH]c(=O)c3cc(F)cc(c23)N[C@@H]1c1ccc(F)cc1 + CC(Nc1ncnc2nc[nH]c12)c1cc2cccc(Cl)c2c(=O)n1-c1ccccc1"
  IC50: "> 0.1 µM"
- compound: "CC(Cn1ccc(-c2ccc(C#N)c(Cl)c2)n1)NC(=O)c1cc(C(C)O)[nH]n1 (stereo unspecified) + Cc1nc(NC(=O)N2CCCC2C(N)=O)sc1-c1ccnc(C(C)(C)C(F)(F)F)c1"
  IC50: "> 10 µM"
- compound: "CC1(C)CCC(Nc2ncc(C(F)(F)F)c(-c3c[nH]c4c(P(C)(C)=O)c(C#N)ccc34)n2)CN1 (stereo unspecified) + CC(Nc1ncnc2nc[nH]c12)c1cc2cccc(Cl)c2c(=O)n1-c1ccccc1"
  IC50: "4.35 µM"
- compound: "CC1(C)CCC(CN2CCN(c3ccc(C(=O)NS(=O)(=O)c4ccc(NCC5CCOCC5)c([N+](=O)[O-])c4)c(Oc4cnc5[nH]ccc5c4)c3)CC2)=C(c2ccc(Cl)cc2)C1 + CC(Nc1ccc2c(c1)OCCn1cc(N3C(=O)OCC3C(F)F)nc1-2)C(N)=O"
  IC50: "3.65 µM"
- compound: "Cn1cnc2c(F)c(Nc3ccc(Br)cc3Cl)c(C(=O)NOCCO)cc21 + COc1c(OCCCN2CCOCC2)ccc2c3n(c(=NC(=O)c4cnc(N)nc4)nc12)CCN3"
  IC50: "< 0.00949 µM"
- compound: "CC(=O)c1c(C)c2cnc(Nc3ccc(N4CCNCC4)cn3)nc2n(C2CCCC2)c1=O + CC(Nc1ncnc2nc[nH]c12)c1cc2cccc(Cl)c2c(=O)n1-c1ccccc1"
  IC50: "> 0.1 µM"
- compound: "CC(Cn1ccc(-c2ccc(C#N)c(Cl)c2)n1)NC(=O)c1cc(C(C)O)[nH]n1 (stereo unspecified) + CC(Nc1ccc2c(c1)OCCn1cc(N3C(=O)OCC3C(F)F)nc1-2)C(N)=O"
  IC50: "> 10 µM"
- compound: "CCCS(=O)(=O)Nc1ccc(F)c(C(=O)c2c[nH]c3ncc(-c4ccc(Cl)cc4)cc23)c1F + COc1c(OCCCN2CCOCC2)ccc2c3n(c(=NC(=O)c4cnc(N)nc4)nc12)CCN3"
  IC50: "< 0.0316 µM"
- compound: "C=CC(=O)N1CCN(c2nc(=O)n(-c3c(C)ccnc3C(C)C)c3nc(-c4c(O)cccc4F)c(F)cc23)C(C)C1 (stereo unspecified) + CC(Nc1ncnc2nc[nH]c12)c1cc2cccc(Cl)c2c(=O)n1-c1ccccc1"
  IC50: "> 10 µM"
- compound: "Cn1ncnc1[C@H]1c2n[nH]c(=O)c3cc(F)cc(c23)N[C@@H]1c1ccc(F)cc1 + COc1c(OCCCN2CCOCC2)ccc2c3n(c(=NC(=O)c4cnc(N)nc4)nc12)CCN3"
  IC50: "< 0.000316 µM"
- compound: "CCCS(=O)(=O)Nc1ccc(F)c(C(=O)c2c[nH]c3ncc(-c4ccc(Cl)cc4)cc23)c1F + CC(Nc1ncnc2nc[nH]c12)c1cc2cccc(Cl)c2c(=O)n1-c1ccccc1"
  IC50: "5.06 µM"

---

Tested on: 186277-243-T-J2-PDC multi-cell spheroid viability
Test: Anticancer human tumor 186277-243-T-J2-PDC cell line growth inhibition [PI3K];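 also: spheroids exposed to compounds for seven days before viability reading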;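 as to viability, T/C: 100% = DMSO vehicle control viability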
Details: second compound 3.16 µM; first compound 0.1 µM; stronger effect = lower value
Text: Combinatorial screen of targeted agents with the PI3K inhibitors inavolisib, alpelisib, duvelisib, and copanlisib in multi-cell type tumor spheroids A high-throughput screen of multi-cell type tumor spheroids was designed to identify active combinations of targeted small molecules and PI3K pathway inhibitors. […] Compounds. […] If the clinical Cmax for an agent had not been determined, the highest concentration tested was 10 microM. […]
Entries annotated with measured viability, T/C

- compound: "CC(=O)c1c(C)c2cnc(Nc3ccc(N4CCNCC4)cn3)nc2n(C2CCCC2)c1=O + CC(Nc1ncnc2nc[nH]c12)c1cc2cccc(Cl)c2c(=O)n1-c1ccccc1"
  system.name: "186277-243-T-J2-PDC multi-cell spheroid viability"
  viability, T/C, %: 119
- compound: "Cn1nccc1Nc1nccc(-c2ccn(C(CO)c3ccc(Cl)c(F)c3)c(=O)c2)n1 (stereo not drawn) + Cc1nc(NC(=O)N2CCCC2C(N)=O)sc1-c1ccnc(C(C)(C)C(F)(F)F)c1"
  system.name: "186277-243-T-J2-PDC multi-cell spheroid viability"
  viability, T/C, %: 29.6
- compound: "CC(C)n1nc(-c2ccc3oc(N)nc3c2)c2c(N)ncnc21 + CC(Nc1ncnc2nc[nH]c12)c1cc2cccc(Cl)c2c(=O)n1-c1ccccc1"
  system.name: "186277-243-T-J2-PDC multi-cell spheroid viability"
  viability, T/C, %: 23.5

---

system: 186277-243-T-J2-PDC multi-cell spheroid viability; assay: Anticancer human tumor 186277-243-T-J2-PDC cell line growth inhibition [PI3K]; settings: second compound 0.01 µM; first compound 3.16 µM; stronger effect = lower value;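 also: spheroids exposed to compounds for seven days before viability reading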;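 as to viability, T/C: 100% = DMSO vehicle control viability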
Exam item: assign fulfilled to entries whose viability, T/C is below 90% and not fulfilled to entries at or above 90%. Note that a value of exactly 90% receives not fulfilled.

- compound: "CCCS(=O)(=O)Nc1ccc(F)c(C(=O)c2c[nH]c3ncc(-c4ccc(Cl)cc4)cc23)c1F + COc1c(OCCCN2CCOCC2)ccc2c3n(c(=NC(=O)c4cnc(N)nc4)nc12)CCN3"
  label.value: "fulfilled"
- compound: "CNC(=O)c1ccc(N2C(=S)N(c3ccc(C#N)c(C(F)(F)F)c3)C(=O)C2(C)C)cc1F + COc1c(OCCCN2CCOCC2)ccc2c3n(c(=NC(=O)c4cnc(N)nc4)nc12)CCN3"
  label.value: "not fulfilled"
- compound: "C[C@@H](NC(=O)c1ncnc(N)c1Cl)c1ncc(C(=O)Nc2cc(C(F)(F)F)c(Cl)cn2)s1 + COc1c(OCCCN2CCOCC2)ccc2c3n(c(=NC(=O)c4cnc(N)nc4)nc12)CCN3"
  label.value: "not fulfilled"
- compound: "C[C@@H](NC(=O)c1ncnc(N)c1Cl)c1ncc(C(=O)Nc2cc(C(F)(F)F)c(Cl)cn2)s1 + CC(Nc1ccc2c(c1)OCCn1cc(N3C(=O)OCC3C(F)F)nc1-2)C(N)=O"
  label.value: "not fulfilled"
- compound: "CC1(C)CCC(CN2CCN(c3ccc(C(=O)NS(=O)(=O)c4ccc(NCC5CCOCC5)c([N+](=O)[O-])c4)c(Oc4cnc5[nH]ccc5c4)c3)CC2)=C(c2ccc(Cl)cc2)C1 + CC(Nc1ccc2c(c1)OCCn1cc(N3C(=O)OCC3C(F)F)nc1-2)C(N)=O"
  label.value: "fulfilled"
- compound: "C#Cc1c(F)ccc2cc(O)cc(-c3ncc4c(N5CC6CCC(C5)N6)nc(OCC56CCCN5CC(F)C6)nc4c3F)c12 (configuration not stated) + COc1c(OCCCN2CCOCC2)ccc2c3n(c(=NC(=O)c4cnc(N)nc4)nc12)CCN3"
  label.value: "fulfilled"
- compound: "CC1(C)CCC(Nc2ncc(C(F)(F)F)c(-c3c[nH]c4c(P(C)(C)=O)c(C#N)ccc34)n2)CN1 (configuration not stated) + CC(Nc1ccc2c(c1)OCCn1cc(N3C(=O)OCC3C(F)F)nc1-2)C(N)=O"
  label.value: "fulfilled"
- compound: "CC(Cn1ccc(-c2ccc(C#N)c(Cl)c2)n1)NC(=O)c1cc(C(C)O)[nH]n1 (configuration not stated) + COc1c(OCCCN2CCOCC2)ccc2c3n(c(=NC(=O)c4cnc(N)nc4)nc12)CCN3"
  label.value: "not fulfilled"
- compound: "Cn1ncc(Cl)c1-c1cc(C(=O)NC(CN)Cc2cccc(F)c2)sc1Cl (configuration not stated) + COc1c(OCCCN2CCOCC2)ccc2c3n(c(=NC(=O)c4cnc(N)nc4)nc12)CCN3"
  label.value: "fulfilled"
- compound: "CNC(=O)c1ccc(N2C(=S)N(c3ccc(C#N)c(C(F)(F)F)c3)C(=O)C2(C)C)cc1F + CC(Nc1ccc2c(c1)OCCn1cc(N3C(=O)OCC3C(F)F)nc1-2)C(N)=O"
  label.value: "not fulfilled"
- compound: "CC(Cn1ccc(-c2ccc(C#N)c(Cl)c2)n1)NC(=O)c1cc(C(C)O)[nH]n1 (configuration not stated) + CC(Nc1ccc2c(c1)OCCn1cc(N3C(=O)OCC3C(F)F)nc1-2)C(N)=O"
  label.value: "not fulfilled"
- compound: "Cn1nccc1Nc1nccc(-c2ccn(C(CO)c3ccc(Cl)c(F)c3)c(=O)c2)n1 (configuration not stated) + COc1c(OCCCN2CCOCC2)ccc2c3n(c(=NC(=O)c4cnc(N)nc4)nc12)CCN3"
  label.value: "fulfilled"
- compound: "CC(C)NCC(C(=O)N1CCN(c2ncnc3c2C(C)CC3O)CC1)c1ccc(Cl)cc1 (configuration not stated) + CC(Nc1ccc2c(c1)OCCn1cc(N3C(=O)OCC3C(F)F)nc1-2)C(N)=O"
  label.value: "fulfilled"
- compound: "C#Cc1c(F)ccc2cc(O)cc(-c3ncc4c(N5CC6CCC(C5)N6)nc(OCC56CCCN5CC(F)C6)nc4c3F)c12 (configuration not stated) + CC(Nc1ccc2c(c1)OCCn1cc(N3C(=O)OCC3C(F)F)nc1-2)C(N)=O"
  label.value: "fulfilled"
- compound: "Cn1ncc(Cl)c1-c1cc(C(=O)NC(CN)Cc2cccc(F)c2)sc1Cl (configuration not stated) + CC(Nc1ccc2c(c1)OCCn1cc(N3C(=O)OCC3C(F)F)nc1-2)C(N)=O"
  label.value: "fulfilled"
